Values compiled from patent US20150329594A1.

target: human complement protein C3 (human, UniProt P01024 23-1663); assay: cell-based or functional assay
Sequence (P01024 23-1663 limits assumed): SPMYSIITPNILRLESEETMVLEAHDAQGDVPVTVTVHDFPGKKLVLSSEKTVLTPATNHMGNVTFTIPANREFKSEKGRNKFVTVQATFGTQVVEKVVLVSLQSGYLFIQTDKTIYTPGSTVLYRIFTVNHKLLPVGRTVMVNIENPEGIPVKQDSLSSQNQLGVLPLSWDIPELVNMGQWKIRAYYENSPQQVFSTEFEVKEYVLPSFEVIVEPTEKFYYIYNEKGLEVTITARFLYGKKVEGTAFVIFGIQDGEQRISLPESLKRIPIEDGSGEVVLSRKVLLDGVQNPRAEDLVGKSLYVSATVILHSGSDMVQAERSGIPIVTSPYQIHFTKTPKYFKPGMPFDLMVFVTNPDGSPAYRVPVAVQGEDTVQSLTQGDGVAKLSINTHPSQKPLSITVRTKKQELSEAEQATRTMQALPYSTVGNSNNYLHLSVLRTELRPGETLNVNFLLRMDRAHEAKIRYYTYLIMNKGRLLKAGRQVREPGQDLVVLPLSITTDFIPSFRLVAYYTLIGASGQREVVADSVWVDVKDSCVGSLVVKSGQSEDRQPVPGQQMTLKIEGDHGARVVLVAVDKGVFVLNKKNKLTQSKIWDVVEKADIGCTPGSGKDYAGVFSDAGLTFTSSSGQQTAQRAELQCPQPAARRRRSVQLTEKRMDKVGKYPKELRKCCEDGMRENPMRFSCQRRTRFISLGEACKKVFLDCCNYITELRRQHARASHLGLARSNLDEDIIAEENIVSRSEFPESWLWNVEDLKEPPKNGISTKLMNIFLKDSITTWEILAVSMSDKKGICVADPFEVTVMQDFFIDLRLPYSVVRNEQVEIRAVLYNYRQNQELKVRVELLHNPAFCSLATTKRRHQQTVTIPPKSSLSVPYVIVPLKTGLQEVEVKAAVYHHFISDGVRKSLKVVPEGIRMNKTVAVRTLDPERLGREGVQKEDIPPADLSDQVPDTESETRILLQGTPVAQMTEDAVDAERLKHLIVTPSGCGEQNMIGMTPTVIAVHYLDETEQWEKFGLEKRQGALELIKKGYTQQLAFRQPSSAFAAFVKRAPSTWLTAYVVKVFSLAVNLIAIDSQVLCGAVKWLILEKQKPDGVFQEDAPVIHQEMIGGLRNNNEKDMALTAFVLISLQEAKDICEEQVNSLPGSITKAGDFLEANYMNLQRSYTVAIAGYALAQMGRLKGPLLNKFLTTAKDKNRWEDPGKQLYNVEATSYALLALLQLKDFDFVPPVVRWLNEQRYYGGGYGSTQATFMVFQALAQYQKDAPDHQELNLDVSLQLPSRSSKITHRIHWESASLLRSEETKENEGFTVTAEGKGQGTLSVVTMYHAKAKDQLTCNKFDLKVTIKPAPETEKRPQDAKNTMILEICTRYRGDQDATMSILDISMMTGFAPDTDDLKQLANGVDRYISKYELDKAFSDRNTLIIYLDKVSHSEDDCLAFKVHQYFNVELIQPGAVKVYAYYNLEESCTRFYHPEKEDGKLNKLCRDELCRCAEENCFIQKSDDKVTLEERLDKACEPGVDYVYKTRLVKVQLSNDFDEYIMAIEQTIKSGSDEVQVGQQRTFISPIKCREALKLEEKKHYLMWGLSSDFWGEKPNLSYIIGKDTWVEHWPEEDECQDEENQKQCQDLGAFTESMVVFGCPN
Bridge positions count the residues as written; N and C are the ends. Square brackets hold non-standard residues; d marks the D form. Trp(1-Me) = Cn1cc(C[C@H](N)C(=O)O)c2ccccc21
observationType: IC50 (assay not named in Table 7; preliminary C3b ELISA by paragraph 235)
Give the number first and the unit second.

IN: If you can, please state the reported IC50 (assay not named in Table 7; preliminary C3b ELISA by paragraph 235) value of Ac-[Trp(1-Me)]CVWQDWGAHRCT-NH2 (disulfide 2-12) [Peptide II, Ac-me…-NH2] .
OUT: 240 µM

IN: Queued: RSICVXQDWGAHRCT (N-terminal acetyl; C-terminal amide; disulfide bridge Cys2-Cys12; meW (Trp methylated at the indole amide position) at position 4 (filing's numbering from -1; 6th residue of the chain)) [Peptide VI, Ac-RS-ICVme…-NH2]
OUT: 620 µM

IN: Queued: Ac-SSICVWQDWGAHRCT-NH2 (disulfide 4-14; SMILES CC[C@H](C)[C@H](NC(=O)[C@H](CO)NC(=O)[C@H](CO)NC(C)=O)C(=O)N[C@H]1CSSC[C@@H](C(=O)N[C@H](C(N)=O)[C@@H](C)O)NC(=O)[C@H](CCCNC(=N)N)NC(=O)[C@H](Cc2c[nH]cn2)NC(=O)[C@H](C)NC(=O)CNC(=O)[C@H](Cc2c[nH]c3ccccc23)NC(=O)[C@H](CC(=O)O)NC(=O)[C@H](CCC(N)=O)NC(=O)[C@H](Cc2c[nH]c3ccccc23)NC(=O)[C@H](C(C)C)NC1=O) [Peptide IV, Ac-SS-ICVWQDWGAHRCT-NH2]
OUT: 330 µM

IN: Queued: Ac-RCV[Trp(1-Me)]QDWGAHRCT-NH2 (disulfide 2-12; SMILES CC(=O)N[C@@H](CCCNC(=N)N)C(=O)N[C@H]1CSSC[C@@H](C(=O)N[C@H](C(N)=O)[C@@H](C)O)NC(=O)[C@H](CCCNC(=N)N)NC(=O)[C@H](Cc2c[nH]cn2)NC(=O)[C@H](C)NC(=O)CNC(=O)[C@H](Cc2c[nH]c3ccccc23)NC(=O)[C@H](CC(=O)O)NC(=O)[C@H](CCC(N)=O)NC(=O)[C@H](Cc2cn(C)c3ccccc23)NC(=O)[C@H](C(C)C)NC1=O) [Peptide III, Ac-RCVme…-NH2]
OUT: 300 µM

IN: Queued: Ac-WWRCVWQDWGAHRCT-NH2 (disulfide 4-14; SMILES CC(=O)N[C@@H](Cc1c[nH]c2ccccc12)C(=O)N[C@@H](Cc1c[nH]c2ccccc12)C(=O)N[C@@H](CCCNC(=N)N)C(=O)N[C@H]1CSSC[C@@H](C(=O)N[C@H](C(N)=O)[C@@H](C)O)NC(=O)[C@H](CCCNC(=N)N)NC(=O)[C@H](Cc2c[nH]cn2)NC(=O)[C@H](C)NC(=O)CNC(=O)[C@H](Cc2c[nH]c3ccccc23)NC(=O)[C@H](CC(=O)O)NC(=O)[C@H](CCC(N)=O)NC(=O)[C@H](Cc2c[nH]c3ccccc23)NC(=O)[C@H](C(C)C)NC1=O) [Peptide V, Ac-WW-RCVWQDWGAHRCT-NH2]
OUT: 460 µM

IN: Queued: Ac-RCVWQDWGAHRCT-NH2 (disulfide 2-12; SMILES CC(=O)N[C@@H](CCCNC(=N)N)C(=O)N[C@H]1CSSC[C@@H](C(=O)N[C@H](C(N)=O)[C@@H](C)O)NC(=O)[C@H](CCCNC(=N)N)NC(=O)[C@H](Cc2c[nH]cn2)NC(=O)[C@H](C)NC(=O)CNC(=O)[C@H](Cc2c[nH]c3ccccc23)NC(=O)[C@H](CC(=O)O)NC(=O)[C@H](CCC(N)=O)NC(=O)[C@H](Cc2c[nH]c3ccccc23)NC(=O)[C@H](C(C)C)NC1=O) [Peptide I, Ac-RCVWQDWGAHRCT-NH2]
OUT: 250 µM
